All values here come from patent US9346815B2.

- TEST_TARGET: isolated recombinant JAK1 kinase domain (Homo sapiens (Human), UniProt P23458)
- Sequence (P23458 875-1153): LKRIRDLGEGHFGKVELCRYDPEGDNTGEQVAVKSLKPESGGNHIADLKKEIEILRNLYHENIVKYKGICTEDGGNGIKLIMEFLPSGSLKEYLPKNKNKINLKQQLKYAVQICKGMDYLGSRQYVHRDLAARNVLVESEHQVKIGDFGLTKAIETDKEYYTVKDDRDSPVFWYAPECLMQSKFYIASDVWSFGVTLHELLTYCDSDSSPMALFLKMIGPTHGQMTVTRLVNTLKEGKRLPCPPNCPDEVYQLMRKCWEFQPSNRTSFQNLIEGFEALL
- MEASUREMENT_NOTES: JAK1 enzyme assay (Caliper LabChip, peptide phosphorylation)
- Type: biochemical
- COND: isolated recombinant JAK1 kinase domain, 25 μM ATP
MEASURED_METRIC: Ki (nM)
All answers are understood in nM, so give the number only.

Some solved entries appear below for comparison.
CN(C)Cc1ccc(-c2nc(-c3cc(Cl)ccc3OC(F)F)c(NC(=O)c3cnn4cccnc34)s2)cc1 :: 0.56
CN1CCC(=CCn2cc(NC(=O)c3cnn4cccnc34)c(-c3cc(Cl)ccc3OC(F)F)n2)CC1 :: 2.99
CC(C)CN1CCN(C(=O)Cn2cc(NC(=O)c3cnn4cccnc34)c(-c3cc(Cl)ccc3OC(F)F)n2)CC1 :: 0.64

So, CN1CCCC2CN(C(=O)Cn3cc(NC(=O)c4cnn5cccnc45)c(-c4cc(Cl)ccc4OC(F)F)n3)CC21 (stereo not shown) ? Its Ki was 0.46

Value of measured Ki for the entry CN(CCO)C1CCN(C(=O)Cn2cc(NC(=O)c3c(N)nn4cccnc34)c(-c3cc(Cl)ccc3OC(F)F)n2)CC1 : 0.46

Entry CN(C)C1CCN(Cc2nc(-c3cc(Cl)ccc3OC(F)F)c(NC(=O)c3cnn4cccnc34)s2)CC1 ; Ki = 7.74

Field Ki (entry CN(CC1(C)COC1)C1CCN(c2nc(-c3cc(Cl)ccc3OC(F)F)c(NC(=O)c3cnn4cccnc34)s2)CC1 ) reads 1.24

---

- TEST_TARGET: isolated recombinant JAK1 kinase domain (Homo sapiens (Human), UniProt P23458)
- MEASUREMENT_NOTES: JAK1 enzyme assay (Caliper LabChip, peptide phosphorylation)
- Assay type: biochemical
- COND: isolated recombinant JAK1 kinase domain, 25 μM ATP
MEASURED_METRIC: Ki (nM)
Note: unit nM is implicit; provide only the numeric part.

Examples from the recorded data:
CN(C)CC1(O)CCN(C(=O)Cn2cc(NC(=O)c3cnn4cccnc34)c(-c3cc(Cl)ccc3OC(F)F)n2)CC1 :: 0.97
CN(C)CCOC(=O)C1CCN(C(=O)Cn2cc(NC(=O)c3cnn4cccnc34)c(-c3cc(Cl)ccc3OC(F)F)n2)CC1 :: 0.36
O=C(Nc1cn(CC(=O)N2CCN(CC3CCOCC3)CC2)nc1-c1cc(Cl)ccc1OC(F)F)c1cnn2cccnc12 :: 0.47

Next compound, Ki to be filled in.
So for Nc1nn2cccnc2c1C(=O)Nc1cn([C@H]2CCNC2)nc1-c1cc(Cl)ccc1OC(F)F , the logged Ki turned out to be 0.71

---

# EC50 per record follows
- Test system: JAK1-dependent STAT6 phosphorylation downstream of IL-13 stimulation in BEAS-2B human bronchial epithelial cells
- MEASUREMENT_NOTES: JAK1 pathway assay in BEAS-2B cells (IL-13-pSTAT6, MSD)
- Format: cell-based
- COND: read-out: IL13-pSTAT6 EC50 (uM)_BEAS-2B

These solved cases illustrate the format of a correct answer.
CN(CCCc1ccccc1)C1CCN(C(=O)Cn2cc(NC(=O)c3cnn4cccnc34)c(-c3cc(Cl)ccc3OC(F)F)n2)CC1 :: 0.0487 µM
O=C(Nc1cn(CC(=O)N2CCNCC2)nc1-c1cc(Cl)ccc1OC(F)F)c1cnn2cccnc12 :: 0.0566 µM
O=C(Nc1cn(CCN[C@H]2CCOC2)nc1-c1cc(Cl)ccc1OC(F)F)c1cnn2cccnc12 :: 0.0232 µM

Data point: CC(C)(C)OC(=O)N1CC[C@@H](O)[C@H](n2cc(NC(=O)c3cnn4cccnc34)c(-c3cc(Cl)ccc3OC(F)F)n2)C1 (single isomer, unassigned) ; EC50 = 0.0396 µM

EC50 in this record for CC(C)(C)OC(=O)N1CC[C@H](n2cc(NC(=O)c3cnn4cccnc34)c(-c3cc(Cl)ccc3OC(F)F)n2)[C@@H](O)C1 (single isomer, unassigned) : 0.0678 µM
